Test system: 282377-053-R-J1-PDC complex spheroids, viability
test: Anticancer human tumor 282377-053-R-J1-PDC patient-derived colon adenocarcinoma cell line growth inhibition [GQUAD]; active means viability on the fitted dose curve at most 10% of control; inactive means the rest
setup_conditions: second compound 10 µM; first compound 1 µM
Outcome codes: 1 (yes) = active, 0 (no) = inactive

{"compound": "C=CC(=O)N1CCN(c2nc(=O)n(-c3c(C)ccnc3C(C)C)c3nc(-c4c(O)cccc4F)c(F)cc23)C(C)C1 (stereo unspecified) + Cc1[nH]c2ccc(F)cc2c1-c1nc2c3cccnc3c3ncccc3c2[nH]1", "category_label": "0 (no)"}
{"compound": "C=CC(=O)N1CCN(c2nc(=O)n(-c3c(C)ccnc3C(C)C)c3nc(-c4c(O)cccc4F)c(F)cc23)C(C)C1 (stereo unspecified) + Cc1cnc(CNC(=O)c2c(=O)c3ccc(N4CCCN(C)CC4)nc3n3c2sc2ccccc23)cn1", "category_label": "0 (no)"}
{"compound": "C=CC(=O)N1CCN(c2nc(=O)n(-c3c(C)ccnc3C(C)C)c3nc(-c4c(O)cccc4F)c(F)cc23)C(C)C1 (stereo unspecified) + CN(C)c1ccc(Nc2c3ccc(NC(=O)CCN4CCCC4)cc3nc3cc(NC(=O)CCN4CCCC4)ccc23)cc1", "category_label": "0 (no)"}
{"compound": "Cc1cccc(N(C)C(=O)C2C(O)CCN2c2nc(C)cc(C(F)(F)F)c2C#N)c1 (stereo unspecified) + Cc1cnc(CNC(=O)c2c(=O)c3ccc(N4CCCN(C)CC4)nc3n3c2sc2ccccc23)cn1", "category_label": "0 (no)"}
{"compound": "O=C(NO)c1cnc(N2CCN(S(=O)(=O)c3ccc4ccccc4c3)CC2)nc1 + Cc1cnc(CNC(=O)c2c(=O)c3ccc(N4CCCN(C)CC4)nc3n3c2sc2ccccc23)cn1", "category_label": "1 (yes)"}
{"compound": "CC1COCCN1c1cc(C2(S(C)(=N)=O)CC2)nc(-c2ccnc3[nH]ccc23)n1 (stereo unspecified) + Cc1[nH]c2ccc(F)cc2c1-c1nc2c3cccnc3c3ncccc3c2[nH]1", "category_label": "0 (no)"}
{"compound": "O=c1[nH]cc(F)c(=O)[nH]1 + Cc1[nH]c2ccc(F)cc2c1-c1nc2c3cccnc3c3ncccc3c2[nH]1", "category_label": "0 (no)"}
{"compound": "COc1cccc2c1C(=O)c1c(O)c3c(c(O)c1C2=O)CC(O)(C(=O)CO)CC3OC1CC(N)C(O)C(C)O1 (stereo unspecified) + Cc1cnc(CNC(=O)c2c(=O)c3ccc(N4CCCN(C)CC4)nc3n3c2sc2ccccc23)cn1", "category_label": "0 (no)"}
{"compound": "CC(C)(O)C1CCC(Nc2ccc3ncc(-c4cccc(C(F)(F)F)c4)n3n2)CC1 (stereo unspecified) + Cc1[nH]c2ccc(F)cc2c1-c1nc2c3cccnc3c3ncccc3c2[nH]1", "category_label": "0 (no)"}
{"compound": "COc1ccc([C@@H](O)c2cc(-c3ncnc4cc(N5CCOCC5)ccc34)c(F)cc2Cl)nn1 + CN(C)c1ccc(Nc2c3ccc(NC(=O)CCN4CCCC4)cc3nc3cc(NC(=O)CCN4CCCC4)ccc23)cc1", "category_label": "0 (no)"}
{"compound": "CC(=O)O[C@H]1C(=O)[C@@]2(C)[C@H]([C@H](OC(=O)c3ccccc3)[C@]3(O)C[C@H](OC(=O)[C@H](O)[C@@H](NC(=O)c4ccccc4)c4ccccc4)C(C)=C1C3(C)C)[C@]1(OC(C)=O)CO[C@@H]1C[C@@H]2O + Cc1[nH]c2ccc(F)cc2c1-c1nc2c3cccnc3c3ncccc3c2[nH]1", "category_label": "0 (no)"}
{"compound": "COc1cc(C2c3cc4c(cc3C(OC3OC5COC(C)OC5C(O)C3O)C3COC(=O)C23)OCO4)cc(OC)c1O (stereo unspecified) + CN(C)c1ccc(Nc2c3ccc(NC(=O)CCN4CCCC4)cc3nc3cc(NC(=O)CCN4CCCC4)ccc23)cc1", "category_label": "0 (no)"}
{"compound": "O=C(c1cc(Cc2n[nH]c(=O)c3ccccc23)ccc1F)N1CCN(C(=O)C2CC2)CC1 + Cc1cnc(CNC(=O)c2c(=O)c3ccc(N4CCCN(C)CC4)nc3n3c2sc2ccccc23)cn1", "category_label": "0 (no)"}
{"compound": "CC(C)n1c(=O)n(C)c2cnc3cc(F)c(-c4ccc(OCCCN5CCCCC5)nc4)cc3c21 + Cc1cnc(CNC(=O)c2c(=O)c3ccc(N4CCCN(C)CC4)nc3n3c2sc2ccccc23)cn1", "category_label": "0 (no)"}
{"compound": "Nc1ccn(C2OC(CO)C(O)C2(F)F)c(=O)n1 (stereo unspecified) + Cc1cnc(CNC(=O)c2c(=O)c3ccc(N4CCCN(C)CC4)nc3n3c2sc2ccccc23)cn1", "category_label": "0 (no)"}
{"compound": "C#Cc1c(F)ccc2cc(O)cc(-c3ncc4c(N5CC6CCC(C5)N6)nc(OCC56CCCN5CC(F)C6)nc4c3F)c12 (stereo unspecified) + Cc1[nH]c2ccc(F)cc2c1-c1nc2c3cccnc3c3ncccc3c2[nH]1", "category_label": "1 (yes)"}
{"compound": "CC(C)n1c(=O)n(C)c2cnc3cc(F)c(-c4ccc(OCCCN5CCCCC5)nc4)cc3c21 + CN(C)c1ccc(Nc2c3ccc(NC(=O)CCN4CCCC4)cc3nc3cc(NC(=O)CCN4CCCC4)ccc23)cc1", "category_label": "0 (no)"}
{"compound": "O=C(c1cc(Cc2n[nH]c(=O)c3ccccc23)ccc1F)N1CCN(C(=O)C2CC2)CC1 + Cc1[nH]c2ccc(F)cc2c1-c1nc2c3cccnc3c3ncccc3c2[nH]1", "category_label": "0 (no)"}
{"compound": "O=c1[nH]cc(F)c(=O)[nH]1 + CN(C)c1ccc(Nc2c3ccc(NC(=O)CCN4CCCC4)cc3nc3cc(NC(=O)CCN4CCCC4)ccc23)cc1", "category_label": "0 (no)"}
{"compound": "CC1COCCN1c1cc(C2(S(C)(=N)=O)CC2)nc(-c2ccnc3[nH]ccc23)n1 (stereo unspecified) + CN(C)c1ccc(Nc2c3ccc(NC(=O)CCN4CCCC4)cc3nc3cc(NC(=O)CCN4CCCC4)ccc23)cc1", "category_label": "0 (no)"}
{"compound": "CC1COCCN1c1cc(C2(O)CC3CCC(C2)O3)c2cnn(-c3ccn[nH]3)c2n1 (stereo unspecified) + CN(C)c1ccc(Nc2c3ccc(NC(=O)CCN4CCCC4)cc3nc3cc(NC(=O)CCN4CCCC4)ccc23)cc1", "category_label": "0 (no)"}

----------
Test system: 282377-053-R-J1-PDC complex spheroids, viability
test: Anticancer human tumor 282377-053-R-J1-PDC cell line growth inhibition [GQUAD];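 further: spheroids exposed to compounds for 7 days before readout; percent of vehicle DMSO control viability with 100% = untreated-like growth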
setup_conditions: second compound 0.1 µM; first compound 0.1 µM; hits give low values
Catalogue of viability, T/C readings, one per entry.
property_measured: viability, T/C (%)

{"molecule": "CC(C)n1c(=O)n(C)c2cnc3cc(F)c(-c4ccc(OCCCN5CCCCC5)nc4)cc3c21 + Cc1[nH]c2ccc(F)cc2c1-c1nc2c3cccnc3c3ncccc3c2[nH]1", "result_number": 118}
{"molecule": "CC(=O)O[C@H]1C(=O)[C@@]2(C)[C@H]([C@H](OC(=O)c3ccccc3)[C@]3(O)C[C@H](OC(=O)[C@H](O)[C@@H](NC(=O)c4ccccc4)c4ccccc4)C(C)=C1C3(C)C)[C@]1(OC(C)=O)CO[C@@H]1C[C@@H]2O + Cc1[nH]c2ccc(F)cc2c1-c1nc2c3cccnc3c3ncccc3c2[nH]1", "result_number": 107}
{"molecule": "C=CCn1c(=O)c2cnc(Nc3ccc(N4CCN(C)CC4)cc3)nc2n1-c1cccc(C(C)(C)O)n1 + Cc1cnc(CNC(=O)c2c(=O)c3ccc(N4CCCN(C)CC4)nc3n3c2sc2ccccc23)cn1", "result_number": 115}
{"molecule": "C#Cc1c(F)ccc2cc(O)cc(-c3ncc4c(N5CC6CCC(C5)N6)nc(OCC56CCCN5CC(F)C6)nc4c3F)c12 (stereo not given) + Cc1cnc(CNC(=O)c2c(=O)c3ccc(N4CCCN(C)CC4)nc3n3c2sc2ccccc23)cn1", "result_number": 109}
{"molecule": "COc1ccc([C@@H](O)c2cc(-c3ncnc4cc(N5CCOCC5)ccc34)c(F)cc2Cl)nn1 + CN(C)c1ccc(Nc2c3ccc(NC(=O)CCN4CCCC4)cc3nc3cc(NC(=O)CCN4CCCC4)ccc23)cc1", "result_number": 75.3}
{"molecule": "C#Cc1c(F)ccc2cc(O)cc(-c3ncc4c(N5CC6CCC(C5)N6)nc(OCC56CCCN5CC(F)C6)nc4c3F)c12 (stereo not given) + CN(C)c1ccc(Nc2c3ccc(NC(=O)CCN4CCCC4)cc3nc3cc(NC(=O)CCN4CCCC4)ccc23)cc1", "result_number": 97.1}
{"molecule": "Nc1ccn(C2OC(CO)C(O)C2(F)F)c(=O)n1 (stereo not given) + Cc1cnc(CNC(=O)c2c(=O)c3ccc(N4CCCN(C)CC4)nc3n3c2sc2ccccc23)cn1", "result_number": 61.7}
{"molecule": "COc1ncnc(C2CC2)c1-c1ncc2cnn(Cc3ccc(-c4nc(C(F)(F)F)cn4C(C)C)cc3)c2n1 + Cc1cnc(CNC(=O)c2c(=O)c3ccc(N4CCCN(C)CC4)nc3n3c2sc2ccccc23)cn1", "result_number": 96.2}
{"molecule": "COc1cccc2c1C(=O)c1c(O)c3c(c(O)c1C2=O)CC(O)(C(=O)CO)CC3OC1CC(N)C(O)C(C)O1 (stereo not given) + CN(C)c1ccc(Nc2c3ccc(NC(=O)CCN4CCCC4)cc3nc3cc(NC(=O)CCN4CCCC4)ccc23)cc1", "result_number": 96.2}
{"molecule": "CCCS(=O)(=O)Nc1ccc(F)c(C(=O)c2c[nH]c3ncc(-c4ccc(Cl)cc4)cc23)c1F + Cc1[nH]c2ccc(F)cc2c1-c1nc2c3cccnc3c3ncccc3c2[nH]1", "result_number": 114}
